FYI, the data here is from PubChem BioAssay AID488969.

Molecular target: Metabotropic glutamate receptor 8 (Rattus norvegicus)
Assay: mGluR8 Gi/Go-coupled signaling modulation – cell-based, rat, thallium flux, HTS, primary screen (AID 488969)
Details: HEK293 rat mGluR8, GIRK (G protein-gated inwardly rectifying potassium channel) thallium flux, FluoZin2; at 10 µM; stronger effect = higher value; submaximal glutamate (EC20) added with thallium
Over roughly 110,000 compounds, “z-score” has its median near -0.1; the highest 2% begin near 2. Many of the other results were omitted from the sample, so the highest values are more common in it than they were.
assayReadout: z-score
// response body must contain only the number

Ask: Please tell me: z-score of COc1cccc(C(=O)NC(=S)N2CCN(c3ccc(C(F)(F)F)cc3[N+](=O)[O-])CC2)c1 , system Metabotropic glutamate receptor 8 (Rattus norvegicus)?
Result: 4.68

Ask: Same again, this time with Cc1c(C(=O)Nc2ccccc2[N+](=O)[O-])csc1-c1ccccc1
Result: -0.152

Ask: Same for CCc1ccc(NC(=O)CCn2ccnc2C)cc1
Result: 0.306

Ask: Param item: Fc1ccccc1NC(=S)NNc1ncc(C(F)(F)F)cc1Cl
Result: 1.37

Ask: Now consider Cc1ccc(NC(=S)NNc2ncc(C(F)(F)F)cc2Cl)cc1 .
Result: 2.19

Ask: Next record, please: Cc1ccc(-c2nnc3n2CCCCC3)cc1
Result: 0.0634

Ask: Also check CCCCC1S/C(=N/N=C/c2ccc(OC)cc2)N(Cc2ccc(OC)cc2)C1=O (configuration not stated)
Result: -0.524

Ask: Input O=C(NCc1ccc2c(c1)OCO2)C1CC(c2ccccc2O)=NO1 (configuration not stated)
Result: 0.36

New cases:
Ask: For the record O=C(NC1CCCCC1)C(c1ccc(F)cc1)N(Cc1ccc2c(c1)OCO2)C(=O)c1cnsn1 (configuration not stated) , what value of z-score is listed for Metabotropic glutamate receptor 8 (Rattus norvegicus)?
Result: 0.366
